tested on: TAZ-IND MCF10A-TAZ tumor cells; test: cell viability relative to DMSO control; higher = less cytotoxic; extreme values may be limits of the assay; conditions: 2.5 µM; 72 h
// NB: equality with 90% counts as f; only cell viability strictly below is t

1) CN1CCN(CCCNc2ncc(Cl)c(-c3cc4c(C(=O)NC5CC5)cccc4s3)n2)CC1
t
2) O=C1NC(=O)/C(=C/c2ccc(-c3ccc(F)cc3O)o2)S1
t
3) O=C(/C=C/c1ccc2ccccc2n1)c1ccncc1
f
4) COCCOc1cnc2ccn([C@H](C)c3nnc4c(F)cc(-c5cnn(C)c5)cn34)c(=O)c2c1
f
5) CC(C)(C)c1ccc(S(=O)(=O)NCc2ccc(C(=O)Nc3cccnc3)cc2)cc1
f
6) CC(C)N(CCCNC(=O)Nc1ccc(C(C)(C)C)cc1)C[C@H]1O[C@@H](n2cc(Br)c3c(N)ncnc32)[C@H](O)[C@@H]1O
t
